Here the recorded normalized growth is given for each entry.
test_name: chemical genetic growth profiling, strain panel (AID 1159580);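 also: tested at 20 µM; growth read once vehicle control cultures reached saturation at 30 °C; 1 = growth at the plate median or of vehicle wells; lower values mean less growth of the strain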
recorded_conditions: S. cerevisiae deletion strains, growth OD, locus YMR125W, strain sto1, stronger effect = lower value
The whole screen tested about 5,500 compounds, of which about 2,000 (36%) were called active. Inconclusive results (about 18%) are left out. This is one part of the list.
measured_property: normalized growth

- compound: "CCC(C)C(=O)O[C@@H]1C[C@@]2(C)[C@H](c3ccoc3)OC(=O)CC23OC2(C)OC34[C@H](OC(=O)C(C)C)[C@@]3(O)[C@@H](OC(=O)C5(C)OC5C)[C@@]5(C)C[C@]3(O)[C@@](C)([C@H]5CC(=O)OC)C14O2 (some centres undefined)"
  measured_property: "normalized growth"
  value_reported: 1.01
- compound: "O=C(O)CCCc1ccccc1"
  measured_property: "normalized growth"
  value_reported: 0.999
- compound: "O=c1c(-c2ccc(O)cc2)coc2cc(O)ccc12"
  measured_property: "normalized growth"
  value_reported: 0.99
- compound: "COc1ccc(-c2coc3cc(O)ccc3c2=O)c(OC)c1"
  measured_property: "normalized growth"
  value_reported: 1.01
- compound: "N[C@@H](Cc1ccc(N(CCCl)CCCl)cc1)C(=O)O"
  measured_property: "normalized growth"
  value_reported: 0.97
- compound: "CC[C@@H]1C=C/C=C/C[C@H](C)[C@@H](O)[C@](C)(O)C(=O)[C@H](C)[C@@H](O)[C@H](C)C(=O)[C@H](C)[C@@H](O)[C@H](C)/C=C/C(=O)O[C@H]2[C@@H](C)[C@@H](CC1)O[C@@]1(CC[C@@H](C)[C@@H](C[C@H](C)O)O1)[C@@H]2C"
  measured_property: "normalized growth"
  value_reported: 1.04
- compound: "Cn1c(=O)c2c(ncn2CC(O)CO)n(C)c1=O (centres undefined)"
  measured_property: "normalized growth"
  value_reported: 0.979
- compound: "O=C(O)CCCc1ccc(N(CCCl)CCCl)cc1"
  measured_property: "normalized growth"
  value_reported: 0.945
- compound: "COC(=O)C1=COC(OC2OC(CO)C(O)C(O)C2O)C2C(C)CC(=O)C12 (centres undefined)"
  measured_property: "normalized growth"
  value_reported: 1.04

---

The reader will find reported normalized growth values listed item by item below.
test_name: chemical genetic growth profiling, strain panel (AID 1159580);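 also: tested at 20 µM; growth read once vehicle control cultures reached saturation at 30 °C; 1 = growth at the plate median or of vehicle wells; lower values mean less growth of the strain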
recorded_conditions: S. cerevisiae deletion strains, growth OD, locus YLR418C, strain cdc73, stronger effect = lower value
About 2,000 (36%) of roughly 5,500 compounds were called active. Not shown: some 18% with an inconclusive outcome. This is one part of the list.

- compound: "Oc1cc(O)c2c(c1)O[C@H](c1ccc(O)c(O)c1)[C@H](O)C2"
  normalized growth: 1.03
- compound: "Oc1cc(O)c2c(c1)OC(c1cc(O)c(O)c(O)c1)C(O)C2c1c(O)cc(O)c2c1OC(c1cc(O)c(O)c(O)c1)C(O)C2c1c(O)cc(O)c2c1OC(c1cc(O)c(O)c(O)c1)C(O)C2 (stereo not drawn)"
  normalized growth: 0.92
- compound: "Oc1ccc2c(c1)O[C@H](c1ccc(O)c(O)c1)[C@@H](O)C2"
  normalized growth: 1.03
- compound: "C[C@@H]1O[C@@H](O[C@H]2[C@H](Oc3cc(O)c4c(=O)cc(-c5ccc(O)cc5)oc4c3)O[C@H](CO)[C@@H](O)[C@@H]2O)[C@H](O)[C@H](O)[C@H]1O"
  normalized growth: 1.01
- compound: "COc1cc(OC)c2c(c1)O[C@H](c1cc(OC)c(OC)c(OC)c1)[C@H](OC(=O)c1cc(OC)c(OC)c(OC)c1)C2"
  normalized growth: 0.973
- compound: "NCCC(O)C(=O)NC1CC(N)C(OC2OC(CN)C(O)C(O)C2N)C(OC2OC(CO)C(O)C2O)C1O (stereo not drawn)"
  normalized growth: 1.02
- compound: "O=C(O[C@@H]1Cc2c(O)cc(O)cc2O[C@@H]1c1ccc(O)c(O)c1)c1cc(O)c(O)c(O)c1"
  normalized growth: 0.963
- compound: "COc1ccc([C@H]2Oc3c(I)c(OC)cc(OC)c3C[C@@H]2O)cc1OC"
  normalized growth: 1.05
